Test: Tissue distribution in C57 BL6 mice bearing B16
Assay type: in vivo, mouse
Conditions: mouse, kidney, iv, 3 umol/animal; 12 h; read-out: kidney % ID/g
experimental.endpoint: tissue uptake at 12 h (%ID/g)
Answers are plain numbers, in %ID/g.

Entry CCN(CC)CCNC(=O)c1ccc(I)cc1 [Derivative A, N-(2-diethylaminoethyl) 4-iodo benzamide] — recorded tissue uptake at 12 h = 0.19

###

Assay: Tissue distribution in C57 BL6 mice bearing B16
Format: in vivo, mouse
Details: mouse, muscle, iv, 3 umol/animal, 1 h; read-out: muscle % ID/g
Protocol: The study of the tissue distribution of the ^125 I labelled compounds was performed in mice bearing grafted melanomas (cf. autoradiograms above). […] The animals are sacrificed at different time intervals of 1 to 24 hours after the injection. The blood is collected and the principal organs are excised. Aliquots are weighed and the radioactivity of the samples is measured in a […] 1191 counter (analytic tracer). The counting yield for iodine 125 is 60%. […]
Record form. Attribute: tissue uptake at 1 h. Fill in for each entry.

>  <molecule>
CCN(CC)CCNC(=O)c1ccc(I)cc1 [Derivative A, N-(2-diethylaminoethyl) 4-iodo benzamide]

>  <tissue uptake at 1 h>
1.55 %ID/g

$$$$

Shift focus to the following entry.
Sure, the documented tissue uptake at 1 h for CCNCCNC(=O)c1ccc(I)cc1 [Derivative B, N-(2-ethylaminoethyl) 4-iodo benzamide] is 2.55 %ID/g
